The reported measurements were obtained from patent US20190071499A1.

# TESTED_TARGET: human IFN-α10 (human, UniProt P01566 24-189)
# Sequence (P01566 24-189 limits assumed): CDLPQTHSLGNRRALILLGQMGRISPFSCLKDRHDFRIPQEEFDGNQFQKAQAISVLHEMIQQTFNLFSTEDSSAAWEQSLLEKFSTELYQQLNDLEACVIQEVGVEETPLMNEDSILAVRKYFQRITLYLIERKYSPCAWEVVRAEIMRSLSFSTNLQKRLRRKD
# METHOD_DESCRIPTION: cell-based or functional assay
Form field: IC 50 (ng/ml), ISRE dual luciferase reporter assay (one value per entry).
Field format: number, assumed ng/mL, no unit text.

# example entries with known answers
1) 50E11 (antibody, human IgG1, kappa, V domains shown) VH: QVQLVQSGAEMKKPGSSVKVSCKDFGGTFSVYGVNWVRQAPGQGLEWMGGLIPVIGPANYAQKFQGRITITADESTSTAYMELSSLRFDDTAIYYCVRDDNEYWGQGTLVTVSS VL: EMVLTQSPATLSLSPGERATLSCRASQTVSTFLAWYQQKPGQVPRLLVYDISSRANGTPARFSGGGSGTDFTLTISSLELEDFAVYYCQWRSNWPPSLTFGGGTRVEIKR    3.63
2) 26B9 (antibody, human IgG1, kappa, V domains shown, human-derived IgG1, kappa; also called MAB 26B9; hMAB 26B9) VH: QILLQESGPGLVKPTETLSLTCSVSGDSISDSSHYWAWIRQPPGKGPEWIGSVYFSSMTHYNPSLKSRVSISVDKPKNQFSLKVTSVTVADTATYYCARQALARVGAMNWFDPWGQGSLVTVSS VL: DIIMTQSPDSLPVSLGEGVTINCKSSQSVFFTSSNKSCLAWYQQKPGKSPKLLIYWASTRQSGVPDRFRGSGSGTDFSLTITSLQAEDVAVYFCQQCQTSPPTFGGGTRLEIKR    1.84
3) 12H5 (antibody, human IgG1, kappa, V domains shown) VH: QVQLIQSGPEVKRPGASVKVSCKASENTFDTHYINWVRQAPGQGLTWLGWLNPTTGKTGFPQKFKGRVILTSDTSLNTAYMEVSRLTSEDTAVYFCARVLKLSDEYNYGFDVWGQGTTVIVSS VL: DIQVTQSPSSLSASIGDRVTITCRASQNILTFINWYQHKPGKAPKLLIYAASVLQNEVPSRFSGSGSGTDFTLTITSLQPDDFGTYYCQQTYLTPQCSFGQGTKVEIKR    0.66

Now for another entry.
Hello, please tell me recorded IC 50 (ng/ml), ISRE dual luciferase reporter assay for this one: 8H1 (antibody, human IgG1, kappa, V domains shown) VH: QVQLVQSGAEVKKPGASVKVSCKASGQTFTSDDINWVRQAPGQGLEWMGWRNPNTQDTGYAQKFHGRLTLTSNSSISTSYLELSGLRSEDTAVYYCARAGTSTLTGHYFALGVWGQGTTVIVSS VL: DIQLTQSPSSLSASVGDRVTITCQATQDISKYLNWYQQKPGKVPKLLIYETSNLEVGVPSRFSGSGSGTHFTLTISSLQAEDFATYYCQQYENFPFTFGGGTKVEIKR
2.69
